Measured koff, listed per entry for reference.
# test_system: T1, His-tagged HM1.24 antigen, residues N49-A163 of the extracellular domain (UniProt Q10589 49-163)
# T1 chain: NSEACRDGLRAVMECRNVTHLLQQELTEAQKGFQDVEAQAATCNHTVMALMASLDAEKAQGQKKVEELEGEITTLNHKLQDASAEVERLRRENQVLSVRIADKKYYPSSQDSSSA
# method_description: Biacore
// return numeric value only (unit: s⁻¹, not printed)

{"columns": ["binder", "koff, s⁻¹"],
 "data": [
  ["HM1.24_H2.1 heavy chain variant with HM1.24_L4 light chain (antibody, V domains shown) VH: EVQLVESGGGLVKPGGSLRLSCAASGYTFTPYWMQWVRQAPGKGLEWMGSIFPGEGDTRYSQSFQGQVTISADKSISTAYMELSSLRSEDTAVYYCARGLRRGGYYFDYWGQGTLVTVSS VL: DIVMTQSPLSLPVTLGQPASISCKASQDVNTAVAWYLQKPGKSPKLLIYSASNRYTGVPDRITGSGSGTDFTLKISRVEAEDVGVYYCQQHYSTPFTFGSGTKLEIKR", 0.00218],
  ["HM1.24_H1.2_L2_Hybrid_S239D/I332E (antibody, V domains shown) VH: QVQLVQSGAEVKKPGASVKVSCKASGYTFTPYWMQWVRQAPGQGLEWMGSIFPGSGDTRYSQSFQGQVTISADKSISTAYMELSRLRSDDTAVYYCARGLRRGGYYFDYWGQGTLVTVSS VL: DIVMTQSPSSLSASVGDRVTITCQASQDVNTAVAWYQQKPDQSPKLLIYSASNRYTGVPDRITGSGSGTDFTLTISSLQAEDVAVYYCQQHYSTPFTFGSGTKLEIKR", 0.0039]
]}

Now consider the entry below.
Reported koff of HM1.24_H1.2 heavy chain variant with HM1.24_L4 light chain (antibody, V domains shown) VH: QVQLVQSGAEVKKPGASVKVSCKASGYTFTPYWMQWVRQAPGQGLEWMGSIFPGSGDTRYSQSFQGQVTISADKSISTAYMELSRLRSDDTAVYYCARGLRRGGYYFDYWGQGTLVTVSS VL: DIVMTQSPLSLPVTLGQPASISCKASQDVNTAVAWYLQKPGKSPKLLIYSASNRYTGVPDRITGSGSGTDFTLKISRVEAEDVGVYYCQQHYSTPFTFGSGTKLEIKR : 0.0023
